- Tested on: PXR homodimer (NR concentration 270 nM)
- test_method_notes: PBM binding z-score (relative to random genomic background probes); higher = stronger binding; sequences stand for … in GC…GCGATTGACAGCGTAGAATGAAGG
Is PBM binding z-score at least -0.1? Then y. If not, n.

Illustrative cases are given below, each with its answer.
TCAGACAGGTAAAGGTAACTCAGGTACGCAGTCG    y
AATACAGGGCCATCGTAGGCCAGAGTACGCACAG    n
TCATATAGGCAATACAGGTGAAAGTCGGCATCTA    y

Prompt: Form field: PBM binding z-score at least -0.1? Entry: `AGTCAACGTTCAGGACGAGGTAACGTAAAGCACG`
Response: n

Prompt: Form field: PBM binding z-score at least -0.1? Entry: `CCTCGGAAGACAGAAGGTCAGAGCTGTCCGCTTT`
Response: y

Prompt: Form field: PBM binding z-score at least -0.1? Entry: `ATCGAAAAGTCGTGAGGTGAGTATACAGAAAGGC`
Response: n

Prompt: Form field: PBM binding z-score at least -0.1? Entry: `CCTAGTTGGTCAAGGTCACACACGCTATAGGTAC`
Response: y

Prompt: Form field: PBM binding z-score at least -0.1? Entry: `ATCTCTTGGTAAGACTCAGTTCAGTGAAGAACGC`
Response: y

Prompt: Form field: PBM binding z-score at least -0.1? Entry: `GCTGCTAGGTCAGGTTGGTAAGCTAACGGGTACG`
Response: n

Prompt: Form field: PBM binding z-score at least -0.1? Entry: `ACAGACAGGTGATGAAGGTAATTCAGGCTATCAT`
Response: n

Prompt: Form field: PBM binding z-score at least -0.1? Entry: `TCTTGTAGATCAACAGGATGTTAAGAAAGATCGA`
Response: n

Prompt: Form field: PBM binding z-score at least -0.1? Entry: `TCTATTAGTTGATTAGAGCAACCGAAACAGCGGA`
Response: y

Prompt: Form field: PBM binding z-score at least -0.1? Entry: `TCGAGTAGGTTAGCGGCATTCAGAATGGCGTCGA`
Response: n

Prompt: Form field: PBM binding z-score at least -0.1? Entry: `AGTATGAGGTTATTAAGATCAGGGAATTGCGGTC`
Response: y

---

- Tested on: PPARg DBDmut:RXRa IVT, anti-PPARg (DBD mutation: PPARg1 K132A/R137A, NR concentration 270 nM, RXRa partner concentration 90 nM)
- test_method_notes: PBM binding z-score (relative to random genomic background probes); higher = stronger binding; sequences stand for … in GC…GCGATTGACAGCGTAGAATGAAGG
measurement_kind: PBM binding z-score
Enter a number only.

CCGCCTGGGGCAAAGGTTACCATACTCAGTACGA    -0.483
ATATGTTGGTTAGCTGGGGTCATTCAGACTAGGC    0.767
TAGCCTAGGTCCTTGGGCCAGTATAGTACGCATC    -2.61

Prompt: Recorded PBM binding z-score of `CATACAGGGTCAGCTAGGTCAGAGTAGGGACGGC` , please.
Response: 1.35

Prompt: Recorded PBM binding z-score of `CCTACAGGGCCAAAAAGGTCATTGATGCCGATAA` , please.
Response: -1.38
